Reference source: ChEMBL document CHEMBL1153641

# run-description: AUC in rat at 10 mg/kg, po
# Type: ADME, organism-based
# Set-up: dose 10 mg/kg, route oral
# test-conditions: plasma
value-kind: AUC (nM·h)

structure: CC[C@@H](Nc1c(Nc2cc(Br)cc(C(=O)N(C)C)c2O)c(=O)c1=O)c1cccs1
AUC / nM·h: 1400
--
structure: CC[C@@H](Nc1c(Nc2cccc(C(=O)NC)c2O)c(=O)c1=O)c1ccccc1
AUC / nM·h: 400
--
structure: CC[C@@H](Nc1c(Nc2ccc(Br)c(C(=O)N(C)C)c2O)c(=O)c1=O)c1ccccc1
AUC / nM·h: 60
--
structure: CC[C@@H](Nc1c(Nc2cc(Cl)cc(C(=O)N(C)C)c2O)c(=O)c1=O)c1cccs1
AUC / nM·h: 2200

[P] CC[C@@H](Nc1c(Nc2cccc(C(=O)N3CC[C@H](CO)C3)c2O)c(=O)c1=O)c1ccccc1
[Q] CC[C@@H](Nc1c(Nc2cccc(C(=O)N3CCCC3)c2O)c(=O)c1=O)c1ccccc1
stdin: Compare P and Q by numeric AUC and name the larger one. Respond using the label that marks the chosen record.
stdout: Q
(Q: 1000 nM·h, P: 440 nM·h)

[a] CC[C@@H](Nc1c(Nc2cccc(C(=O)N(C)C)c2O)c(=O)c1=O)c1cccs1
[b] CC[C@@H](Nc1c(Nc2cccc(C(=O)N(C)C)c2O)c(=O)c1=O)c1ccccc1
stdin: Smaller AUC value, a vs b ? Respond using the label that marks the chosen record.
stdout: a
(a: 2500 nM·h, b: 17400 nM·h)

[a] CC[C@@H](Nc1c(Nc2cccc(C(N)=O)c2O)c(=O)c1=O)c1ccccc1
[b] CC[C@@H](Nc1c(Nc2cccc(C(=O)N(C)C(C)C)c2O)c(=O)c1=O)c1ccccc1
stdin: Compare a and b by numeric AUC and name the larger one. Respond using the label that marks the chosen record.
stdout: a

[P] CC[C@@H](Nc1c(Nc2cccc(C(=O)N3CC(O)C3)c2O)c(=O)c1=O)c1ccccc1
[Q] CC[C@@H](Nc1c(Nc2c(C)ccc(C(=O)N(C)C)c2O)c(=O)c1=O)c1ccccc1
stdin: Smaller AUC value, P vs Q ? Respond using the label that marks the chosen record.
stdout: P

====

# study-system: UniProt:P25024
# Sequence (P25024 whole entry): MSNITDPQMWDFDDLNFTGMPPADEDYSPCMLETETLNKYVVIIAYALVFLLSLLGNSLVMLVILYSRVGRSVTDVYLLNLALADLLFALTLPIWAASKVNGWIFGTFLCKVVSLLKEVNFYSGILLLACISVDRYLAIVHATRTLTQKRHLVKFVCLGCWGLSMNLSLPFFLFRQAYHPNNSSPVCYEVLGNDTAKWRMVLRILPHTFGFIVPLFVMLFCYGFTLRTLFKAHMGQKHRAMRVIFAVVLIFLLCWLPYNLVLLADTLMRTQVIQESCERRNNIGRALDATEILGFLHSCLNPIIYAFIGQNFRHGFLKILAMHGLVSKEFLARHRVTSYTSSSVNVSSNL
value-kind: pKi
// field semantics: pKi = negative decimal log of concentration (mol/L)

# CC[C@@H](Nc1c(Nc2cccc(C(=O)N3CC[C@H](O)C3)c2O)c(=O)c1=O)c1ccccc1 with UniProt:P25024: pKi is 7.68
